Test system: Fibroblast
assay remarks: Incucyte cell viability with human fibroblast; note: unitless GR value; below 1 slowed growth and below 0 cell loss
Format: toxicity, cell-based
measurement context: 6 h, 10 µM, compound concentration 10 uM, replicate number 2, timepoint 6 hours
Could you label it label 1 if measured Growth Rate is -0.3 or higher, and label 0 otherwise?

// known answers, use as guide
> print(dat)
                                   molecule  category
1  CN(c1ncccc1CNc1ccnc(-c2cc3cc(Cl)ccc3[nH]2)n1)S(C)(=O)=O   label 1
2  Nc1nc(CC(=O)Nc2ccc(CCNC[C@H](O)c3ccccc3)cc2)cs1 [MIRABEGRON]   label 1

Dear colleague, could you confirm whether O=C1NCc2ccc3c(-c4cccc(Cl)c4)c[nH]c3c21 has Growth Rate at or above -0.3?
label 0

Dear colleague, could you confirm whether COC(=O)N1CCN(C(=O)Cc2ccc(Cl)c(Cl)c2)C(CN2CCCC2)C1.O=C(O)/C=C/C(=O)O (stereo not drawn) has Growth Rate at or above -0.3?
label 1

Dear colleague, could you confirm whether O=C(O)CCn1c2c(c3ccccc31)C[C@H](NS(=O)(=O)c1ccc(F)cc1)CC2 [RAMATROBAN] has Growth Rate at or above -0.3?
label 1

Dear colleague, could you confirm whether CC[C@@H](C)Nc1nc(C)nc2c(-c3ccc(OC)nc3C)c(C)nn12 [PEXACERFONT] has Growth Rate at or above -0.3?
label 0

Dear colleague, could you confirm whether O=c1ccc2ccc(OCCCCN3CCN(c4cccc5sccc45)CC3)cc2[nH]1 [BREXPIPRAZOLE] has Growth Rate at or above -0.3?
label 1

Dear colleague, could you confirm whether O=C(N[C@@H]1CC[C@@H](c2cccc(F)c2F)CN(CC(F)(F)F)C1=O)N1CCC(n2c(=O)[nH]c3ncccc32)CC1 [TELCAGEPANT] has Growth Rate at or above -0.3?
label 1

These data points were gathered from ChEMBL document CHEMBL5058564.
